molecular target: UniProtKB P35869; experiment: DRE-Luciferase Reporter Assay (Alternate Method), Example 1B; details: concentration which inhibits half of the luciferase activity induced by AHR activating ligand; DRE-luciferase reporter cell line
Each entry below carries its recorded IC50.

| COMPOUND | IC50 |
| --- | --- |
| CC(C)c1cnn2c(N[C@@H]3CCc4[nH]c5ccccc5c4C3)nc([C@H]3CCCOC3)nc12 [Compound I-15b] | > 1.5 µM |
| CC(C)c1cnn2c(N[C@@H]3CCc4[nH]c5ccccc5c4C3)nc(-c3cnsc3)nc12 [Compound I-53] | 0.5 to 1 µM |
| CC(C)c1cnn2c(N[C@@H]3CCc4[nH]c5ccccc5c4C3)nc(-c3ccc(N(C)C)nc3)nc12 [Compound I-6] | > 1.5 µM |
| C[C@@H](CO)c1cnn2c(N[C@@H]3CCc4[nH]c5ccccc5c4C3)nc(-c3cncc(F)c3)nc12 [Compound I-25a] | < 0.5 µM |
| CC(C)c1cnn2c(N[C@@H]3CCc4[nH]c5ccccc5c4C3)nc(-c3cncc(N(C)C)c3)nc12 [Compound I-5] | > 1.5 µM |
| CC(C)c1cnn2c(N[C@H]3Cc4cncnc4NC3=O)nc(-c3cncc(F)c3)nc12 [Compound I-55a] | > 1.5 µM |
| CC(C)c1cnn2c(N[C@H]3CCc4[nH]c5cnccc5c4C3)nc(-c3cncc(F)c3)nc12 [Compound I-13b] | > 1.5 µM |
| CC(C)c1cnn2c(N[C@@H]3CCc4[nH]c5ccccc5c4C3)nc(C3CCOC3)nc12 (stereo partly drawn) [Compound I-17] | 0.5 to 1 µM |
| CC(C)c1cnn2c(N[C@H]3CC[C@H](O)CC3)nc(-c3cncc(F)c3)nc12 [Compound I-44a] | > 1.5 µM |
| CC(C)c1cnn2c(N[C@H]3CC[C@@H](O)CC3)nc(-c3cncc(F)c3)nc12 [Compound I-44b] | > 1.5 µM |
| O[C@H](c1cnn2c(N[C@@H]3CCc4[nH]c5ccccc5c4C3)nc(-c3cncc(F)c3)nc12)C(F)(F)F [Compound I-41a] | < 0.5 µM |
| Cc1cnc2c(N[C@@H]3CCc4[nH]c5ccccc5c4C3)nc(-c3cncc(F)c3)nc2c1 [Compound I-14] | 1 to 1.5 µM |
| CC(C)c1cnn2c(N[C@@H]3CCc4[nH]c5ccccc5c4C3)nc([C@@H]3CCCOC3)nc12 [Compound I-15a] | > 1.5 µM |
| CC(C)c1cnn2c(N[C@@H]3CCc4[nH]c5ccccc5c4C3)nc(-n3cnc4ccccc43)nc12 [Compound I-12] | 1 to 1.5 µM |
| CC(C)c1cnn2c(N[C@H]3CCc4[nH]c5cccc(O)c5c4C3)nc(-c3cncc(F)c3)nc12 [Compound I-29a] | > 1.5 µM |

###

target: AHR (UniProt P35869); test: DRE-Luciferase Reporter Assay (Alternate Method), Example 1B; conditions: concentration which inhibits half of the luciferase activity induced by AHR activating ligand; DRE-luciferase reporter cell line
pIC50: −log10 of the molar value.

| MOLECULE | MEASURED ON | pIC50 |
| --- | --- | --- |
| C[C@H](O)c1cnc2c(N[C@@H]3CCc4[nH]c5ccccc5c4C3)nc(-c3cncc(F)c3)nn12 [Compound I-42a] | AHR (UniProt P35869) | > 6.30 |
| Fc1cc(-c2nc(N[C@@H]3CCc4[nH]c5ccccc5c4C3)n3nccc3n2)cnc1[C@H]1CCCN1 [Compound I-26b] | AHR (UniProt P35869) | < 5.82 |
| Fc1cncc(-c2nc(N[C@@H]3CCc4[nH]c5ccccc5c4C3)n3ncc(-c4cnn[nH]4)c3n2)c1 | AHR (UniProt P35869) | > 6.30 |
| CC(C)c1cnn2c(N[C@H]3CCc4[nH]c5ccc(O)cc5c4C3)nc(-c3cncc(F)c3)nc12 [Compound I-34a] | AHR (UniProt P35869) | < 5.82 |

###

molecular target: UniProt P35869; assay: DRE-Luciferase Reporter Assay (Alternate Method), Example 1B; details: concentration which inhibits half of the luciferase activity induced by AHR activating ligand; DRE-luciferase reporter cell line
Each entry below carries its recorded IC50.

| MOLECULE | IC50 |
| --- | --- |
| CC(CO)CNc1nc(-c2cncc(F)c2)nc2c(C(C)C)cnn12 (centres unmarked) | > 1.5 µM |
| CC(C)c1cnn2c(NCCNc3ccccn3)nc(-c3cncc(F)c3)nc12 | 1 to 1.5 µM |
| CC(C)c1cnn2c(N[C@@H]3CNc4ncncc4C3)nc(-c3cncc(F)c3)nc12 [Compound I-60b] | < 0.5 µM |
| CC(C)c1cnn2c(N[C@@H]3CCc4[nH]c5ccccc5c4C3)nc(-c3ccc(N4CCOCC4)nc3)nc12 | > 1.5 µM |
| CC(C)c1cnn2c(N[C@H]3CCc4ccccc4C3)nc(-c3cncc(F)c3)nc12 [Compound I-48b] | > 1.5 µM |
| CC(C)c1cnn2c(N[C@H]3CNc4ncncc4C3)nc(-c3cncc(F)c3)nc12 [Compound I-60a] | > 1.5 µM |
| CC(C)c1cnn2c(NCCCCO)nc(-c3cncc(F)c3)nc12 | > 1.5 µM |
| Nc1cnn2c(N[C@@H]3CCc4[nH]c5ccccc5c4C3)nc(-c3cncc(F)c3)nc12 | < 0.5 µM |

###

Each entry below carries its recorded IC50.
Target: AHR (UniProt P35869)
Sequence (P35869 1-848): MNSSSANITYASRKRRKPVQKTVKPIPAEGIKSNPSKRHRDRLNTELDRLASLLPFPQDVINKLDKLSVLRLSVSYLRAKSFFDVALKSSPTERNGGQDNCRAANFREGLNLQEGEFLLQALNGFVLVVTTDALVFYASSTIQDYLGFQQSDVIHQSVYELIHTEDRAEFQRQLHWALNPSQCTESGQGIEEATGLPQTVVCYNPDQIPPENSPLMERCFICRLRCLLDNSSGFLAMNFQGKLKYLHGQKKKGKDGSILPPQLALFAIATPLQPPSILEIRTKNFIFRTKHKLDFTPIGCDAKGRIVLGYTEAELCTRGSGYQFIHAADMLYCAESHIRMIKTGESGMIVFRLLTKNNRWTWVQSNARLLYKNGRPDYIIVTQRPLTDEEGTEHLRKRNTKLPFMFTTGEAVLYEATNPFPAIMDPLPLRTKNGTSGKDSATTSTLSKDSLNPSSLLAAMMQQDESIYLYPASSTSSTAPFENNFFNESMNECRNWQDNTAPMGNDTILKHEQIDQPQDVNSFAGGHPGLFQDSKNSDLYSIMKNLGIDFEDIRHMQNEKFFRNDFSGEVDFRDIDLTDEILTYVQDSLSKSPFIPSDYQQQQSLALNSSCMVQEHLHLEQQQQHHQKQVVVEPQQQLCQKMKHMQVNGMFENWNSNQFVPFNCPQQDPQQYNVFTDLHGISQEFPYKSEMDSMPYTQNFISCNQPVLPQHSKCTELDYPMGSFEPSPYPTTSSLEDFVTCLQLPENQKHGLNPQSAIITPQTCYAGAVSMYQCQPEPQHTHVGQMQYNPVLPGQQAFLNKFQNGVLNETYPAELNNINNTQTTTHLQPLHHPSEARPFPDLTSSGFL
Assay: DRE-Luciferase Reporter Assay (Alternate Method), Example 1B
Details: concentration which inhibits half of the luciferase activity induced by AHR activating ligand; DRE-luciferase reporter cell line
MEASUREMENT NAME: IC50

| MOLECULE | VALUE OBSERVED |
| --- | --- |
| CC(CO)CCNc1nc(-c2cncc(F)c2)nc2c(C(C)C)cnn12 (stereo not drawn) | > 1500 nM |
| CC(C)c1cnn2c(NCCc3cccnc3N)nc(-c3cncc(F)c3)nc12 | < 500 nM |
| C[C@@H](NC(=O)N1CCOCC1)c1cnn2c(N[C@@H]3CCc4[nH]c5ccccc5c4C3)nc(-c3cncc(F)c3)nc12 [Compound I-56b] | < 500 nM |
| C[C@@H](N)c1cnn2c(N[C@@H]3CCc4[nH]c5ccccc5c4C3)nc(-c3cncc(F)c3)nc12 [Compound I-32b] | < 500 nM |
| Fc1cncc(-c2nc(N[C@@H]3CCc4[nH]c5ccccc5c4C3)n3nc4c(c3n2)COCC4)c1 | < 500 nM |
| Fc1cncc(-c2nc(N[C@@H]3CCc4[nH]c5ccccc5c4C3)n3ncc(C4CCOC4)c3n2)c1 (stereo partly drawn) | < 500 nM |
| COCC[C@H](C)c1cnn2c(N[C@@H]3CCc4[nH]c5ccccc5c4C3)nc(-c3cncc(F)c3)nc12 [Compound I-65a] | < 500 nM |
| C[C@H](NC(=O)N1CCN(C)CC1)c1cnn2c(N[C@@H]3CCc4[nH]c5ccccc5c4C3)nc(-c3cncc(F)c3)nc12 [Compound I-61a] | < 500 nM |
| Cc1ccnc2c(N[C@@H]3CCc4[nH]c5ccccc5c4C3)nc(-c3cncc(F)c3)nc12 | < 500 nM |
| C=C(C)c1cnn2c(N[C@@H]3CCc4[nH]c5ccccc5c4C3)nc(-c3cncc(F)c3)nc12 | < 500 nM |
| CC(C)c1cnn2c(N[C@@H]3CNc4ccccc4C3)nc(-c3cncc(F)c3)nc12 [Compound I-35a] | 1000 to 1500 nM |
| C[C@@H](O)c1cnc2c(N[C@@H]3CCc4[nH]c5ccccc5c4C3)nc(-c3cncc(F)c3)nn12 [Compound I-42b] | < 500 nM |
| CC(C)c1cnn2c(N[C@@H]3Cc4cncnc4NC3=O)nc(-c3cncc(F)c3)nc12 [Compound I-55b] | > 1500 nM |
| CC(C)c1cnn2c(N[C@@H]3CNc4ncccc4C3)nc(-c3cncc(F)c3)nc12 [Compound I-37a] | 500 to 1000 nM |
| C[C@@H](NC(=O)N1CCN(C)CC1)c1cnn2c(N[C@@H]3CCc4[nH]c5ccccc5c4C3)nc(-c3cncc(F)c3)nc12 [Compound I-61b] | 500 to 1000 nM |
